# system tested: SARS-CoV-2 NSP3 macrodomain (Mac1), P43 crystal form (Severe acute respiratory syndrome coronavirus 2)
# Type: binding
# assay context: ligand conformations modeled in Mac1 crystal structure

- molecule: "OCC(Cc1ccoc1)Nc1ncnc2[nH]ccc12 (centres unmarked) [AVI-3705]"
  Total number of conformations: 1
- molecule: "O=C(O)C(F)(F)F.O[C@H]1CCC[C@@H]1Nc1ncnc2[nH]ccc12 [AVI-3639]"
  Total number of conformations: 1
- molecule: "OCC(Cc1c[nH]c2ccccc12)Nc1ncnc2[nH]ccc12 (centres unmarked) [AVI-3650]"
  Total number of conformations: 2
- molecule: "C[C@H]1CC[C@H](CO)N(c2ncnc3[nH]ccc23)C1 (racemic) [AVI-4063]"
  Total number of conformations: 1
- molecule: "O=C(O)C(F)(F)F.OCC1(Nc2ncnc3[nH]ccc23)CCC1 [AVI-3670]"
  Total number of conformations: 2

----------
# system tested: SARS-CoV-2 NSP3 macrodomain (Mac1), P43 crystal form (Severe acute respiratory syndrome coronavirus 2, UniProt P0DTD1)
# Type: binding
# assay context: ligand conformations modeled in Mac1 crystal structure

- compound: "Cc1c[nH]c2ncnc(NCC3(O)CCSCC3)c12"
  Total number of conformations: 1
- compound: "O=C(O)C(F)(F)F.OCC1(Nc2ncnc3[nH]ccc23)CC1"
  Total number of conformations: 1
- compound: "OC1(CNc2ncnc3[nH]ccc23)CCCCC1"
  Total number of conformations: 1
- compound: "CC(C)(C)C1CCC(CO)N(c2ncnc3[nH]ccc23)C1 (centres unmarked)"
  Total number of conformations: 1
- compound: "OCC(COCc1ccccc1)Nc1ncnc2[nH]ccc12 (centres unmarked)"
  Total number of conformations: 2

----------
# system tested: SARS-CoV-2 NSP3 macrodomain (Mac1), P43 crystal form (Severe acute respiratory syndrome coronavirus 2, UniProt P0DTD1)
# Assay type: binding
# assay context: site of ligand in X-ray crystal structure

- compound: "OCC(Cc1ccc(I)cc1)Nc1ncnc2[nH]ccc12 (centres unmarked)"
  Binding site: "Adenosine"
- compound: "Cc1ccc(CC(CO)Nc2ncnc3[nH]ccc23)cc1 (centres unmarked)"
  Binding site: "Adenosine"
- compound: "OCC(CC1CC1)Nc1ncnc2[nH]ccc12 (centres unmarked)"
  Binding site: "Adenosine"
- compound: "OCC(Nc1ncnc2[nH]ccc12)C1CCOC1 (centres unmarked)"
  Binding site: "Adenosine"
- compound: "OCC(Nc1ncnc2[nH]ccc12)C1CC1 (centres unmarked)"
  Binding site: "Adenosine"

----------
# system tested: SARS-CoV-2 NSP3 macrodomain (Mac1) (Severe acute respiratory syndrome coronavirus 2, UniProt P0DTD1)
# measurement notes: biochemical
# Format: binding
# assay context: HTRF dose-response fit, Mac1
Entries and their measured Hill slope follow.

- molecule: "OCC(Nc1ncnc2[nH]ccc12)C1CC1 (stereo not shown)"
  Hill slope: 1.2
- molecule: "Cc1c[nH]c2ncnc(NCC3(O)CCOCC3)c12"
  Hill slope: 1.3
- molecule: "OC1(CNc2ncnc3[nH]ccc23)CCCSC1 (stereo not shown)"
  Hill slope: 1.3
- molecule: "CC1(C)CCN(c2ncnc3[nH]ccc23)C(CO)C1 (stereo not shown)"
  Hill slope: 1.2
- molecule: "OC1(CNc2ncnc3[nH]ccc23)CC2CCC1CC2 (stereo not shown)"
  Hill slope: 1.1
- molecule: "OCC(Cc1ccccc1)Nc1ncnc2[nH]ccc12 (stereo not shown)"
  Hill slope: 1.2
- molecule: "OC[C@@H]1C[C@H](O)CN1c1ncnc2[nH]ccc12"
  Hill slope: 1.2
- molecule: "Cc1c[nH]c2ncnc(NCC3(O)CCSCC3)c12"
  Hill slope: 1.2
- molecule: "CCC(O)[C@H]1CCCN1c1ncnc2[nH]ccc12 (stereo partly shown)"
  Hill slope: 1.3
- molecule: "OC1(CNc2ncnc3[nH]ccc23)CCCC(C(F)(F)F)C1 (stereo not shown)"
  Hill slope: 1.4
- molecule: "OC[C@@H]1C[C@@H]2CCC[C@@H]2N1c1ncnc2[nH]ccc12"
  Hill slope: 1.2
- molecule: "Cc1c[nH]c2ncnc(NCC3(O)CCC(C)CC3)c12 (stereo not shown)"
  Hill slope: 1.2
- molecule: "OC1(CNc2ncnc3[nH]ccc23)CCSCC1"
  Hill slope: 1.2
- molecule: "CN(CC1(O)CCOCC1)c1ncnc2[nH]ccc12"
  Hill slope: 1.2
- molecule: "OC1(CNc2ncnc3[nH]ccc23)CCC2(CC1)OCCO2"
  Hill slope: 1.2
- molecule: "CCC(CC)(CO)Nc1ncnc2[nH]ccc12"
  Hill slope: 1.3
- molecule: "OCCC(CO)Nc1ncnc2[nH]ccc12 (stereo not shown)"
  Hill slope: 1.2
- molecule: "CCC(C)(CO)Nc1ncnc2[nH]ccc12 (stereo not shown)"
  Hill slope: 1.2
- molecule: "OCC1CCC2(CCOCC2)CN1c1ncnc2[nH]ccc12 (stereo not shown)"
  Hill slope: 1.2
- molecule: "OC1(CNc2ncnc3[nH]ccc23)CCOCC1"
  Hill slope: 1.2
- molecule: "CC1(C)C[C@@H](CO)N(c2ncnc3[nH]ccc23)C1.O=C(O)C(F)(F)F"
  Hill slope: 1.1
- molecule: "C[C@@H]1CCN(c2ncnc3[nH]ccc23)[C@H](CO)C1 (racemic)"
  Hill slope: 1.2

----------
# system tested: SARS-CoV-2 NSP3 macrodomain (Mac1), P43 crystal form (Severe acute respiratory syndrome coronavirus 2)
# Format: binding
# assay context: crystal soak 10 mM; TFA/DMSO background map
outcome measure: PanDDA run, TFA/DMSO background map: Hit

- compound: "O=C(O)C(F)(F)F.OCC(Nc1ncnc2[nH]ccc12)C1CCCO1 (stereo not shown)"
  test result: "TRUE"
- compound: "O=C(O)C(F)(F)F.OCC(Nc1ncnc2[nH]ccc12)C(O)C1CCCCC1 (stereo not shown)"
  test result: "TRUE"
- compound: "O=C(O)C(F)(F)F.OC[C@@H](CCc1ccccc1)Nc1ncnc2[nH]ccc12"
  test result: "TRUE"
- compound: "CC(C)CCC(CO)Nc1ncnc2[nH]ccc12.O=C(O)C(F)(F)F (stereo not shown)"
  test result: "TRUE"

----------
# system tested: SARS-CoV-2 NSP3 macrodomain (Mac1), P43 crystal form (Severe acute respiratory syndrome coronavirus 2, UniProt P0DTD1)
# Format: binding
# assay context: site of Mac1 where ligand bound in crystal structure

- molecule: "Cc1cc2c(=O)n(CCN3C(=O)c4ccccc4S3(=O)=O)nnc2s1 [AVI-341]"
  Binding site: "Adenosine"
- molecule: "O=C(O)C1CCCN1S(=O)(=O)c1cccc2nsnc12 (stereo not shown) [AVI-2]"
  Binding site: "Adenosine"
- molecule: "CC(CNC(=O)c1ccc2c(c1)CCC(=O)N2)C(=O)O (stereo not shown) [AVI-328]"
  Binding site: "Adenosine"
- molecule: "CC(C)n1nnnc1SCc1c(C(=O)O)sc2cccc(F)c12 [AVI-291]"
  Binding site: "Adenosine"
- molecule: "Cc1sc2ncnc(Sc3ccccc3C(=O)O)c2c1C [AVI-317]"
  Binding site: "Adenosine"
- molecule: "CC1CC(C(=O)O)CCN1C(=O)c1ccc2c(c1)NC(=O)CO2 (stereo not shown) [AVI-303]"
  Binding site: "Adenosine"
- molecule: "CC1CCN(C(=O)c2ccc3c(c2)nc(CO)n3C)CC1C(=O)O (stereo not shown) [AVI-348]"
  Binding site: "Adenosine"
- molecule: "OCC(Cc1ccccc1)Nc1ncnc2[nH]ccc12 (stereo not shown) [AVI-313]"
  Binding site: "Adenosine"
- molecule: "O=C(Nc1ccsc1C(=O)O)c1ccc2c(c1)OCO2 [AVI-316]"
  Binding site: "Adenosine"

----------
# system tested: SARS-CoV-2 NSP3 macrodomain (Mac1), P43 crystal form (Severe acute respiratory syndrome coronavirus 2)
# Format: binding
# assay context: crystal soak 10 mM; DMSO background map
Entries and their measured PanDDA run, DMSO background map: 1-BDC follow.
outcome measure: PanDDA run, DMSO background map: 1-BDC

- molecule: "OCC(Cc1ccccn1)Nc1ncnc2[nH]ccc12 (stereo not shown)"
  outcome measure: "PanDDA run, DMSO background map: 1-BDC"
  test result: 0.13
- molecule: "O=C(O)C(F)(F)F.OCC1(Nc2ncnc3[nH]ccc23)CCCC1"
  outcome measure: "PanDDA run, DMSO background map: 1-BDC"
  test result: 0.22
- molecule: "OC(c1ccccc1)C1CCCN1c1ncnc2[nH]ccc12 (stereo not shown)"
  outcome measure: "PanDDA run, DMSO background map: 1-BDC"
  test result: 0.22
- molecule: "OCC(Nc1ncnc2[nH]ccc12)C1CCCC1 (stereo not shown)"
  outcome measure: "PanDDA run, DMSO background map: 1-BDC"
  test result: 0.16
- molecule: "Cc1nn(C)cc1C1CCC(CO)N1c1ncnc2[nH]ccc12 (stereo not shown)"
  outcome measure: "PanDDA run, DMSO background map: 1-BDC"
  test result: 0.1
- molecule: "CCC(O)[C@H]1CCCN1c1ncnc2[nH]ccc12 (stereo partly shown)"
  outcome measure: "PanDDA run, DMSO background map: 1-BDC"
  test result: 0.3
- molecule: "OCC(Nc1ncnc2[nH]ccc12)C1CCOC1 (stereo not shown)"
  outcome measure: "PanDDA run, DMSO background map: 1-BDC"
  test result: 0.16
- molecule: "OCC1CCCN1c1ncnc2[nH]ccc12 (stereo not shown)"
  outcome measure: "PanDDA run, DMSO background map: 1-BDC"
  test result: 0.25
- molecule: "OCC(Nc1ncnc2[nH]ccc12)C1CCc2ccccc21 (stereo not shown)"
  outcome measure: "PanDDA run, DMSO background map: 1-BDC"
  test result: 0.22
- molecule: "O[C@H]1CC[C@@H]2CCN(c3ncnc4[nH]ccc34)[C@@H]21"
  outcome measure: "PanDDA run, DMSO background map: 1-BDC"
  test result: 0.16
- molecule: "CC(C)(C)CC(CO)Nc1ncnc2[nH]ccc12 (stereo not shown)"
  outcome measure: "PanDDA run, DMSO background map: 1-BDC"
  test result: 0.13
- molecule: "OCC(Cc1c[nH]c2ccccc12)Nc1ncnc2[nH]ccc12 (stereo not shown)"
  outcome measure: "PanDDA run, DMSO background map: 1-BDC"
  test result: 0.15
- molecule: "OCC(CC1CC1)Nc1ncnc2[nH]ccc12 (stereo not shown)"
  outcome measure: "PanDDA run, DMSO background map: 1-BDC"
  test result: 0.14
- molecule: "OC1CCN(c2ncnc3[nH]ccc23)C1 (stereo not shown)"
  outcome measure: "PanDDA run, DMSO background map: 1-BDC"
  test result: 0.15
- molecule: "CN(C)CC(CO)Nc1ncnc2[nH]ccc12 (stereo not shown)"
  outcome measure: "PanDDA run, DMSO background map: 1-BDC"
  test result: 0.17
- molecule: "CC(C)CCC(CO)Nc1ncnc2[nH]ccc12.O=C(O)C(F)(F)F (stereo not shown)"
  outcome measure: "PanDDA run, DMSO background map: 1-BDC"
  test result: 0.15
- molecule: "OCC(CN1CCCCC1)Nc1ncnc2[nH]ccc12 (stereo not shown)"
  outcome measure: "PanDDA run, DMSO background map: 1-BDC"
  test result: 0.21
- molecule: "Cc1ccccc1CC(CO)Nc1ncnc2[nH]ccc12 (stereo not shown)"
  outcome measure: "PanDDA run, DMSO background map: 1-BDC"
  test result: 0.19
- molecule: "OCC(CC1CCCCC1)Nc1ncnc2[nH]ccc12 (stereo not shown)"
  outcome measure: "PanDDA run, DMSO background map: 1-BDC"
  test result: 0.12
- molecule: "O=C(O)C(F)(F)F.OCC1(Nc2ncnc3[nH]ccc23)CC1"
  outcome measure: "PanDDA run, DMSO background map: 1-BDC"
  test result: 0.2
- molecule: "CCC(CO)Nc1ncnc2[nH]ccc12 (stereo not shown)"
  outcome measure: "PanDDA run, DMSO background map: 1-BDC"
  test result: 0.16
- molecule: "Cn1cc(CC(CO)Nc2ncnc3[nH]ccc23)cn1 (stereo not shown)"
  outcome measure: "PanDDA run, DMSO background map: 1-BDC"
  test result: 0.15
